Test system: STAT5 phosphorylation in IL-2 stimulated YT cells
Experiment: pSTAT5 cell assay (IL-2 stimulated YT cells, AlphaScreen)
Format: cell-based
Details: IL-2 stimulated human YT cells, 1 h compound incubation
Note to self: IC50 under 0.07 µM means True, ties and anything higher get False.

Consider the compound `C=CC(=O)Nc1cc(Cn2ncc3cnc(Nc4cnn(C)c4)nc32)ccc1F` . Is its IC50 strictly less than 0.07 µM? False

Consider the compound `C=CS(=O)(=O)Nc1cccc(Cn2ccc3cnc(Nc4cnn(C)c4)nc32)c1` . Is its IC50 strictly less than 0.07 µM? False

Consider the compound `C=C(C)C(=O)Nc1cccc(Cn2ncc3cnc(Nc4cnn(C)c4)nc32)c1` . Is its IC50 strictly less than 0.07 µM? False

Consider the compound `C=CC(=O)Nc1cccc(Cn2ncc3cnc(Nc4cnn(C)c4)nc32)c1` . Is its IC50 strictly less than 0.07 µM? True

Consider the compound `C#CC(=O)Nc1cccc(Cn2ncc3cnc(Nc4cnn(C)c4)nc32)c1` . Is its IC50 strictly less than 0.07 µM? True

Consider the compound `C=CS(=O)(=O)Nc1cccc(Cn2ncc3cnc(Nc4cnn(C)c4)nc32)c1` . Is its IC50 strictly less than 0.07 µM? False
